We begin with a simple list: items and their reported cell viability.
- System: Mv4-11
- Experimental protocol: cell viability relative to DMSO control (bortezomib = 0%); higher = less growth inhibition
- Measurement conditions: 10 nM; 72 h
Observable: cell viability (%)

INSERT INTO measurements (line_notation, system_tested, observable, numeric_readout) VALUES
  ('Cc1cc(Nc2ncnc3ccc(NC4=NC(C)(C)CO4)cc23)ccc1Oc1ccn2ncnc2c1', 'Mv4-11', 'cell viability', 112),
  ('Cc1ccc(F)c(NC(=O)Nc2ccc(-c3cccc4[nH]nc(N)c34)cc2)c1', 'Mv4-11', 'cell viability', 97.7),
  ('CC(=O)O[C@H]1C(=O)[C@@]2(C)[C@H]([C@H](OC(=O)c3ccccc3)[C@]3(O)C[C@H](OC(=O)[C@H](O)[C@@H](NC(=O)c4ccccc4)c4ccccc4)C(C)=C1C3(C)C)[C@]1(OC(C)=O)CO[C@@H]1C[C@@H]2O', 'Mv4-11', 'cell viability', -3.89),
  ('COc1cc2ncn(-c3cc(OCc4ccccc4S(C)(=O)=O)c(C#N)s3)c2cc1OC', 'Mv4-11', 'cell viability', 104),
  ('CC(C)c1ccc2c(c1)CC[C@H]1[C@](C)(CN)CCC[C@]21C', 'Mv4-11', 'cell viability', 101),
  ('O=C(Nc1nc2ccc(NC(=O)C34CC5CC(CC(C5)C3)C4)cc2s1)c1ccccc1', 'Mv4-11', 'cell viability', 101),
  ('CN1CCN(c2ccc(Nc3cc(-c4cccc(-n5ccc6cc(C7CC7)cc(F)c6c5=O)c4CO)cn(C)c3=O)nc2)CC1', 'Mv4-11', 'cell viability', 107);

====

Here, each record is paired with measured cell viability data.
- System: Mv4-11
- Experimental protocol: cell viability relative to DMSO control (bortezomib = 0%); higher = less growth inhibition
- Measurement conditions: 10 nM; 72 h
Observable: cell viability (%)

INSERT INTO results (compound, observable, numeric_readout) VALUES
  ('N#C/C(=C(/N)Sc1ccc(N)cc1)c1ccccc1C(F)(F)F', 'cell viability', 110),
  ('O=C(Nc1nc2cccc(-c3ccc(CN4CCS(=O)(=O)CC4)cc3)n2n1)C1CC1 [Filgotinib (GLPG0634)]', 'cell viability', 108),
  ('CCCCCCCCCCCCC/C=C/[C@H](O)[C@@H](N)CO [L-threo-Sphingosine C-18]', 'cell viability', 113),
  ('Cc1c(CN2CCN(S(C)(=O)=O)CC2)sc2c(N3CCOCC3)nc(-c3cnc(N)nc3)nc12', 'cell viability', 107),
  ('COc1cc2nccc(Oc3ccc(NC(=O)Nc4ccc(F)cc4F)c(F)c3)c2cc1OC', 'cell viability', 103),
  ('Cn1cc(-c2ccc3ncc(Cc4ccc5ncccc5c4)n3n2)cn1', 'cell viability', 119),
  ('COc1ccc2c3n(c(=NC(=O)c4cccnc4)nc2c1OC)CCN3', 'cell viability', 102),
  ('C=CC(=O)Nc1cc(Nc2nccc(-c3c[nH]c4ccccc34)n2)c(OC)cc1N(C)CCN(C)C', 'cell viability', 121),
  ('COc1cc2ncc(-c3ccccc3)nc2cc1OC', 'cell viability', 113),
  ('C[C@@H]1CN(C(=O)c2ccc(NC(=O)c3cc(O[C@H](C)c4c(Cl)ccc(F)c4Cl)c(N)nn3)cc2)C[C@H](C)N1 [Ensartinib]', 'cell viability', 118);
